Overview of reported inhibition at 6 µg/mL across a group of compounds:
Tested on: SVR cells
Test: SVR cell assay: cell numbers counted at 48 hours, percent inhibition versus control
Type: cell-based, murine
Details: Mus musculus; 6 μg/ml; 10,000 SVR cells in 24 well dish; counted at 48 hours; read-out: Percent Inhibition at a Specified Density (μg/ml): 6

These solved cases illustrate the format of a correct answer.
O=C(O)/C=C/c1ccccc1 [Compound 10, trans-Cinnamic Acid, reference compound] | 69.6%
O=C(O)C=Cc1ccc(Br)cc1 [Compound 11, para-Bromocinnamic Acid, reference compound] | 0%
Cc1cccc(C)c1/C=C/C(=O)c1ccccc1 | 89.6%

Could you now look at the following compound, please?
Ask | Please report inhibition at 6 µg/mL for the following compound: O=C(/C=C/c1ccccc1)c1c(F)c(F)c(F)c(F)c1F
Reply | 88.7%
